Test: Microsomal stability (rat)
Type: in vitro ADME
Conditions: rat microsomes
OBSERVABLE: Microsomal Stability (rat) T1/2

Some compounds with recorded Microsomal Stability (rat) T1/2:
O=C(NCC(F)(F)F)c1ccc(-n2c(=O)ccc3cnc4ccc(-c5ccc(Cl)cc5)cc4c32)cc1    >30 min
O=C1NC(=O)c2cc(-n3c(=O)ccc4cnc5ccc(-c6ccc(Cl)cc6)cc5c43)ccc21    23 min
CN(C)Cc1ccc(-c2ccc3ncc4ccc(=O)n(-c5ccc(C(=O)N6CC7CN(C)CC7C6)cc5)c4c3c2)cc1 (stereo not drawn)    >30.0 min
CN(C)CCc1cccc(-c2ccc3ncc4ccc(=O)n(-c5ccc(C(=O)N6CCOCC6)cc5)c4c3c2)c1    >30 min
CS(=O)(=O)c1ccc(-n2c(=O)ccc3cnc4ccc(-c5ccc(F)cc5)cc4c32)cc1    >30.0 min
N#Cc1cccc(-n2c(=O)[nH]c3cnc4ccc(-c5ccc(Cl)cc5)cc4c32)c1    >30.0 min
CN(C)Cc1ccc(-c2ccc3ncc4ccc(=O)n(-c5ccc(C(=O)N6CCOCC6)cc5)c4c3c2)cc1    >30.0 min
CN(C)CC#Cc1ccc2ncc3c(c2c1)n(-c1cccc(C#N)c1)c(=O)n3C    >30 min
CCS(=O)(=O)c1ccc(-n2c(=O)ccc3cnc4ccc(-c5ccc(Cl)cc5)cc4c32)cc1    >30.0 min
Nc1cc(-c2ccc3ncc4ccc(=O)n(-c5ccc(C(=O)NC6CC6)cc5)c4c3c2)ccc1Cl    >30 min

Return value of Microsomal Stability (rat) T1/2 for input COc1cc(C(=O)N2CCOCC2)ccc1-n1c(=O)ccc2cnc3ccc(-c4ccc(CN(C)C)cc4)cc3c21 , no commentary.
>30 min

Fill in Microsomal Stability (rat) T1/2 for record CN1Cc2cc(-n3c(=O)ccc4cnc5ccc(-c6ccc(Cl)cc6)cc5c43)ccc2C1=O
12.4 min

Tell me its Microsomal Stability (rat) T1/2 given Nc1ccc(-c2ccc3ncc4ccc(=O)n(-c5cccc(S(N)(=O)=O)c5)c4c3c2)cn1 as the entry.
>30.0 min

Give reported Microsomal Stability (rat) T1/2 value for Cc1ccc(-c2ccc3ncc4c(c3c2)n(-c2cccc(C#N)c2)c(=O)n4C)cc1
27.2 min

Report Microsomal Stability (rat) T1/2, nothing else, for this compound: CN(C)Cc1ccc(-c2ccc3ncc4ccc(=O)n(-c5ccc(S(=O)(=O)NC6CC6)cc5)c4c3c2)cc1
>30.0 min

====

Molecular target: mTOR (Homo sapiens, UniProt P42345)
Test: mTOR activity (no method described)
Type: biochemical
OBSERVABLE: mTOR (µM)
# value in µM; strip the unit string

The examples below pair each entry with its known result.
O=C(NCCN1CCCC1)c1ccc(-n2c(=O)ccc3cnc4ccc(-c5ccc(Cl)cc5)cc4c32)cc1 [Compound 220]    4.247
O=C(c1ccc(-n2c(=O)ccc3cnc4ccc(-c5ccc(Cl)cc5)cc4c32)cc1)N1C2CCCC1CC2 [Compound 137]    1.518
COc1cc(C(=O)NCCN2CCN(C)CC2)ccc1-n1c(=O)ccc2cnc3ccc(-c4ccc(Cl)cc4)cc3c21 [Compound 252]    100

Hello, please tell me recorded mTOR for this one: O=C(NC1CCCCC1)c1ccc(-n2c(=O)ccc3cnc4ccc(-c5ccc(Cl)cc5)cc4c32)cc1 [Compound 155]
27.97

Input CC1CC1NC(=O)c1ccc(-n2c(=O)ccc3cnc4ccc(-c5ccc(Cl)cc5)cc4c32)cc1 (centres unmarked) [Compound 176] , output reported mTOR.
0.5562

Provide measured mTOR value, entry: O=C(NC1C2CNCC21)c1ccc(-n2c(=O)ccc3cnc4ccc(-c5ccc(Cl)cc5)cc4c32)cc1 (centres unmarked) [Compound 172]
0.9678

Fill in reported mTOR for this entry: Cc1cc(C(=O)NC2CC2)ccc1-n1c(=O)ccc2cnc3ccc(-c4ccc(Cl)cc4)nc3c21 [Compound 247]
1.903

Return mTOR (reported value) for this compound: Cn1c(=O)n(-c2ccc(N3CCNCC3)c(C#N)c2)c2c3cc(-c4ccc(Cl)cc4)ccc3ncc21 [Compound 406]
0.2165

For the compound CN(C)CCc1cccc(-c2ccc3ncc4ccc(=O)n(-c5ccc(C(=O)N6CCOCC6)cc5)c4c3c2)c1 [Compound 212] , give its measured mTOR value.
15.8

Answer with reported mTOR of O=C(NCCCO)c1ccc(-n2c(=O)ccc3cnc4ccc(-c5ccc(Cl)cc5)cc4c32)cc1 [Compound 214]
0.3394

Fill in reported mTOR for this entry: O=C(c1ccc(-n2c(=O)ccc3cnc4ccc(-c5ccc(CN6CCCC6)cc5)cc4c32)cc1)N1CCOCC1 [Compound 184]
18.05

Annotate the compound COc1cc(C(=O)NC2CC2)ccc1-n1c(=O)ccc2cnc3ccc(-c4ccc(C5(N)CC5)cc4)cc3c21 [Compound 205] with its measured mTOR.
1.061

Give me measured mTOR, please, for this compound: COc1cc(-c2ccc3ncc4c(c3c2)n(-c2cc(C#N)ccc2C)c(=O)n4C)ccc1Cl [Compound 407]
50

Identify mTOR associated with the compound Cc1cc(N2CC(N)C2)c(C#N)cc1-n1c(=O)n(C)c2cnc3ccc(-c4cccc(C#N)c4)cc3c21 [Compound 426]
6.418

Complete the entry with mTOR for COc1cc(C(=O)NCCN2CCCC2)ccc1-n1c(=O)ccc2cnc3ccc(-c4ccc(Cl)cc4)cc3c21 [Compound 248]
23.38

Provide one value: measured mTOR of Cc1ccc(C#N)cc1-n1c(=O)n(C)c2cnc3ccc(-c4ccsc4)cc3c21 [Compound 424]
12.51

Look up mTOR of Cc1ccc(C#N)cc1-n1c(=O)n(C)c2cnc3ccc(-c4ccc(Cl)c(C#N)c4)cc3c21 [Compound 410] and report it.
100

// fetch mTOR given entry Cn1c(=O)n(-c2ccc(N3CCN(CCO)CC3)c(C#N)c2)c2c3cc(-c4ccc(Cl)cc4)ccc3ncc21 [Compound 417]
0.319

State its mTOR: Cn1c(=O)n(-c2cccc(C#N)c2)c2c3cc(-c4ccc(Cl)cc4)ccc3ncc21 [Compound 398]
2.471

Check the records and state mTOR for COc1cc(C(=O)NC2CCN(CCN(C)C)CC2)ccc1-n1c(=O)ccc2cnc3ccc(-c4ccc(Cl)cc4)cc3c21 [Compound 250]
2.911

Provide measured mTOR value, entry: CN1CCN(CCCNC(=O)c2ccc(-n3c(=O)ccc4cnc5ccc(-c6ccc(Cl)cc6)cc5c43)cc2)CC1 [Compound 262]
5.399

Recall and state the measured mTOR for N#CC1(NC(=O)c2ccc(-n3c(=O)ccc4cnc5ccc(-c6ccc(Cl)cc6)cc5c43)cc2)CC1 [Compound 304] .
0.8535

Let me know recorded mTOR for Cc1cc(C(=O)NCCCN2CCOCC2)ccc1-n1c(=O)ccc2cnc3ccc(-c4ccc(F)cc4)cc3c21 [Compound 297] , thanks.
11.02

Consider the compound Cc1cc(C(=O)NCCN2CCCCC2)ccc1-n1c(=O)ccc2cnc3ccc(-c4ccc(Cl)cc4)cc3c21 [Compound 291] . State its measured mTOR.
4.975

Given the compound O=C(c1ccc(-n2c(=O)ccc3cnc4ccc(-c5ccc(Cl)cc5)cc4c32)cc1)N1CCCCC1 [Compound 104] , write its reported mTOR.
2.68

Consider the compound O=C(c1ccc(-n2c(=O)ccc3cnc4ccc(Br)cc4c32)cc1)N1CCOCC1 [Compound 337] and give its recorded mTOR.
3.229

====

Listing: PAMPA Permeability (×10^6 cm/s) of selected compounds
Test: PAMPA permeability
Assay type: in vitro ADME
Settings: PAMPA

C[S+]([O-])c1ccc(-n2c(=O)ccc3cnc4ccc(-c5ccc(N)nc5)cc4c32)cc1 (stereo not drawn)    5.1 ×10^6 cm/s

Look up PAMPA Permeability (×10^6 cm/s) of CN(C)Cc1ccc(-c2ccc3ncc4ccc(=O)n(-c5ccc6c(c5)CN(C)C6=O)c4c3c2)cc1 and report it.
317.6 ×10^6 cm/s

In one line, give reported PAMPA Permeability (×10^6 cm/s) of the entry Cc1cc(S(C)(=O)=O)ccc1-n1c(=O)ccc2cnc3ccc(-c4ccc(CN(C)C)cc4)cc3c21 .
828.3 ×10^6 cm/s

Give the reported PAMPA Permeability (×10^6 cm/s) for this compound. Nc1ccc(-c2ccc3ncc4ccc(=O)n(-c5ccc6c(c5)CN(C5CC5)C6=O)c4c3c2)cn1
25 ×10^6 cm/s

// Input: O=C1NCc2cc(-n3c(=O)ccc4cnc5ccc(-c6ccc(CN7CCC7)cc6)cc5c43)ccc21 . Output its PAMPA Permeability (×10^6 cm/s) only.
2.3 ×10^6 cm/s

Supply recorded PAMPA Permeability (×10^6 cm/s) for CN(C)Cc1ccc(-c2ccc3ncc4ccc(=O)n(-c5cccc(S(C)(=O)=O)c5)c4c3c2)cc1 here.
788.14 ×10^6 cm/s

====

Assay: Solubility at pH 7.4
Assay type: physicochemical
OBSERVABLE: Sol @ pH 7.4

N#Cc1ccc(-c2ccc3ncc4ccc(=O)n(-c5ccc(C(=O)N6CCOCC6)cc5)c4c3c2)cc1    2.7 ug/mL
NC1(c2ccc(-c3ccc4ncc5ccc(=O)n(-c6ccc(C(=O)N7CCN(CCO)CC7)cc6)c5c4c3)cc2)CC1    0 ug/mL

Quote Sol @ pH 7.4 reported for COc1cc(C(=O)NCCN2CCCC2)ccc1-n1c(=O)ccc2cnc3ccc(-c4ccc(Cl)cc4)cc3c21 please.
51.2 ug/mL

Input Cn1c(=O)n(-c2ccc(N3CCNCC3)c(C#N)c2)c2c3cc(-c4ccc(Cl)cc4)ccc3ncc21 , output reported Sol @ pH 7.4.
<1 ug/mL

Return Sol @ pH 7.4 (reported value) for this compound: CCn1c(=O)n(-c2cccc(C#N)c2)c2c3cc(-c4ccc(Cl)cc4)ccc3ncc21
<1.0 ug/mL

Give recorded Sol @ pH 7.4. O=C(O)c1ccc(-n2c(=O)ccc3c(O)nc4ccc(-c5ccc(Cl)cc5)cc4c32)cc1
>65 ug/mL

For the compound Cc1ccc(-c2ccc3ncc4c(c3c2)n(-c2cccc(C#N)c2)c(=O)n4C)cc1 , report Sol @ pH 7.4.
<1.0 ug/mL

Data credit: patent US11753408B2
